Source listed as patent US20060122181A1.

melting point listing for selected compounds.

>>> result_value("CC(C)CCN(CC(=O)O)Cc1nc(-c2ccc(N(C)Cc3ccc(C4CCCCC4)cc3)cc2)cs1")
"153 to 154 °C"
>>> result_value("C[C@H]1CC[C@H](c2ccc(COc3ccc(-c4ccc(CN5CCN(c6ccc(C(=O)O)cc6)CC5)s4)cc3)cc2)CC1")
"242.4 to 265.9 °C"
>>> result_value("CCC(CC)c1ccc(COc2ccc(-c3csc(CN(CC(=O)O)C(=O)c4ccc(C)cc4)n3)cc2)cc1")
"142 to 144 °C"
>>> result_value("CCCC(CCC)c1ccc(COc2ccc(C)cc2-c2csc(CN(C)S(=O)(=O)c3ccc(C(=O)O)cc3)n2)cc1")
"130 to 132 °C"
>>> result_value("CCCC(CCC)c1ccc(OCc2ccc(-c3csc(COc4ncccc4C(=O)O)n3)cc2)cc1")
"154.5 °C"
>>> result_value("CCCC(CCC)c1ccc(CN(C)c2ccc(-c3csc(CN4Cc5ccccc5CC4C(=O)O)n3)cc2)cc1 (stereo not shown)")
"176 to 179 °C"

Would you kindly look at the next entry?
### Prompt Provide one value: measured melting point of CN(Cc1ccc(CC(C)(C)C)cc1)c1ccc(-c2csc(CN(CC(=O)O)C(=O)Nc3ccccc3)n2)cc1
### Response 152 to 153 °C

* * *

measurement-kind: melting point

Some solved cases for reference:
>>> result_value("CCCC(CCC)c1ccc(OCc2ccc(-c3csc(CN(CC(=O)O)S(=O)(=O)N(C)c4ccccc4)c3)cc2)cc1 [Example 4-64]")
"139 to 140.2 °C"
>>> result_value("CCCC(CCC)c1ccc(OCc2ccc(-c3csc(CN(CC(=O)O)CC(=O)Nc4ccc(OC)cc4)n3)cc2)cc1 [Example 1-98]")
"176.5 °C"
>>> result_value("CCCC(CCC)c1ccc(COc2ccc(-c3csc(CN(CC(=O)O)C(=O)c4ccc(OC)cc4)n3)cc2)cc1 [Example 3-24]")
"99 to 101 °C"
>>> result_value("CC(C)CN(Cc1ccc(-c2csc(CN(CC(=O)O)C(=O)Nc3ccccc3)n2)cc1)c1ccc(C(C)(C)C)cc1 [Example 1-27]")
"119 °C"
>>> result_value("CCCC(CCC)c1ccc(N(Cc2ccc(-c3ccc(CN(CC(=O)O)Cc4nc5ccccc5[nH]4)s3)cc2)C(C)C)cc1 [Example 4-22]")
"144 to 150 °C"
>>> result_value("CCCC(CCC)c1ccc(CN(C)c2ccc(-c3csc(CN(CC(=O)O)Cc4ccccn4)n3)cc2)cc1 [Example 3-53]")
"117 to 120 °C"
>>> result_value("C[C@H]1CC[C@H](c2ccc(COc3ccc(-c4ccc(CN(CC5CCCCC5)C(=O)Nc5ccc(C(=O)O)cc5)s4)cc3)cc2)CC1 [Example 4-80]")
"168 to 169.9 °C"
>>> result_value("CCCC(CCC)c1ccc(OCc2ccc(-c3csc(COc4cc(C(=O)O)ccc4NC(=O)C(C)C)c3)cc2)cc1 [Example 4-57]")
"153.7 to 154.9 °C"
>>> result_value("Cl.O=C(O)C1(c2ccccc2)CCN(Cc2ccc(-c3cn(Cc4ccc(C5CCCCC5)cc4)c4ccccc34)s2)CC1 [Example 4-62]")
"227.3 to 233.6 °C"
>>> result_value("CC(C)c1ccc(Cn2c(-c3csc(CN4CCc5ccc(C(=O)O)cc5C4)n3)nc3ccc(N4CCOCC4)cc32)cc1 [Example 1-185]")
"141 to 143.2 °C"

### Prompt Specify melting point for CCC(CC)c1ccc(COc2ccc(-c3csc(CN(CC(=O)O)Cc4ccc(C(C)C)cc4)n3)cc2)cc1 [Example 3-15] and stop.
### Response 138 to 140 °C

### Prompt Using known records, supply melting point for Cc1ccc(OCc2ccc(C3CCCCC3)cc2)c(-c2csc(CN(C(=O)C(=O)O)c3ccc4nc(C)sc4c3)c2)c1 [Example 4-104]
### Response 115.9 to 121.1 °C

### Prompt # return recorded melting point for input CCC(CC)c1ccc(N(Cc2ccc(-c3csc(COc4cc(C(=O)O)ccc4[N+](=O)[O-])n3)cc2)C(C)C)cc1 [Example 1-93]
### Response 198 to 200 °C

### Prompt Indicate the recorded melting point value for this compound: CCCC(CCC)c1ccc(OCc2ccc(-c3csc(Cn4nc(C(=O)O)cc4C(C)(C)C)n3)cc2)cc1 [Example 1-178]
### Response 195 to 196.5 °C

* * *

measurement-kind: melting point

>>> result_value("CC(C)CN(Cc1ccc(-c2csc(CN(CC(=O)O)Cc3ccccc3)n2)cc1)c1ccc(Cl)cc1 [Example 1-24]")
"152 °C"
>>> result_value("CCCC(CCC)c1ccc(COc2ccc(C)cc2-c2csc(CN(C)c3ccc(C(=O)O)cc3)n2)cc1 [Example 3-7]")
"184 to 187 °C"
>>> result_value("CN(Cc1ccccc1)c1ccc(-c2csc(CN(CC(=O)O)Cc3ccccc3Cl)n2)cc1 [Example 3-50]")
"132 to 134 °C"
>>> result_value("CCCC(CCC)c1ccc(COc2ccc(-c3csc(CN(CC(=O)O)Cc4cscn4)n3)c(C)c2)cc1 [Example 3-121]")
"103 to 104 °C"

### Prompt For the compound CN(Cc1ccc([C@H]2CC[C@H](C)CC2)cc1)c1ccc(-c2csc(CN3Cc4ccccc4CC3C(=O)O)n2)cc1 (stereo partly drawn) [Example 3-71] , give its reported melting point.
### Response 202 to 205 °C

### Prompt Please give measured melting point of the following entry: CCCC(CCC)c1ccc(OCc2ccc(-c3csc(CN(CC(=O)O)C(=O)COc4ccc(C(C)C)cc4)c3)cc2)cc1 [Example 4-69]
### Response 146 to 152 °C

### Prompt Given the compound CC(C)c1ccc(CN(CC(=O)O)Cc2nc(-c3ccc(N(Cc4ccc(C(C)C)cc4)C(C)C)cc3)cs2)cc1 [Example 3-45] , write its reported melting point.
### Response 77 to 82 °C

### Prompt Look up and report measured melting point for this entry: CCC(CC)c1ccc(N(Cc2ccc(-c3ccc(CN(CC(=O)O)Cc4nc5ccccc5[nH]4)s3)cc2)C(C)C)cc1 [Example 4-21]
### Response 142 to 146 °C

### Prompt Give recorded melting point. CCCC(CCC)c1ccc(COc2ccc(-c3csc(COc4ccc(C(=O)O)cc4)n3)cc2)cc1 [Example 3-2]
### Response 204 to 207 °C

* * *

target: Recombinant human protein tyrosine phosphatase 1B (Homo sapiens, UniProt P18031); construct: purchased UBI; assay: Protein tyrosine phosphatase 1B inhibitory activity (malachite green, phosphorylated insulin receptor peptide substrate); assay type: biochemical; conditions: recombinant human PTP1B, 60 min room temperature, absorbance 650 nm
Sequence (P18031 whole entry): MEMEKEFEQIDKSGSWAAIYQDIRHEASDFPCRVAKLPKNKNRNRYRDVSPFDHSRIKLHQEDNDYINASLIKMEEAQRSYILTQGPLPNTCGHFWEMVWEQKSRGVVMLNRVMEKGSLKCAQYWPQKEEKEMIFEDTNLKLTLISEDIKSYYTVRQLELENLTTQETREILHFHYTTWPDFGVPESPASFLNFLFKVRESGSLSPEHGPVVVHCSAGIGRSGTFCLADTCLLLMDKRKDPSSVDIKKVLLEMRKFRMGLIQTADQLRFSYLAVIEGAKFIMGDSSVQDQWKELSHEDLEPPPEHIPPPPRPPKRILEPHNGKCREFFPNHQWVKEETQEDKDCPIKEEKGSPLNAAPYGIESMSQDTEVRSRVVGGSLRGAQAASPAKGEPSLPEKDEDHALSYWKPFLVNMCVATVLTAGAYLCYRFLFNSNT
measurement-kind: IC50 (µM)

>>> result_value("CCCC(CCC)c1ccc(CN(C)c2ccc(-c3csc(CN4Cc5ccccc5CC4C(=O)O)n3)cc2)cc1 (stereo not drawn)")
0.2
>>> result_value("CCCC(CCC)c1ccc(OCc2ccc(-c3csc(COc4cc(C(=O)O)ccc4N(C)S(C)(=O)=O)c3)cc2)cc1")
0.18
>>> result_value("CCCC(CCC)c1ccc(COc2ccc(C)cc2-c2csc(CN(CC(=O)O)Cc3ccccn3)n2)cc1")
0.45
>>> result_value("CCN(Cc1ccc(C2CCCCC2)cc1)c1ccc(-c2ccc(CN(CC(=O)O)Cc3ccccn3)s2)cc1")
0.45

1: CCCC(CCC)c1ccc(OCc2ccc(-c3csc(CN(CC(=O)O)Cc4nccn4Cc4ccccc4)c3)cc2)cc1
2: CCN(Cc1ccc(C2CCCCC2)cc1)c1ccc(-c2ccc(CN(CCOc3ccccc3)CC(=O)O)s2)cc1
### Prompt // max by IC50 over [ 1 , 2 ] Output the label that corresponds to your choice.
### Response 1
(1: 0.49 µM, 2: 0.23 µM)

P: Cc1ccc(OCc2ccc(C3CCCCC3)cc2)c(-c2csc(CN(C)[C@@H](Cc3ccccc3)C(=O)O)c2)c1
Q: CN(C[C@H]1CC[C@H](c2ccc(Cl)cc2)CC1)c1ccc(-c2csc(CN3CCC(C(=O)O)(c4ccccc4)CC3)n2)cc1
### Prompt Would you mind telling me which has the lower recorded IC50 between P and Q ? Field: selected label. Fill in the label of the entry you choose.
### Response Q

* * *

measurement-kind: melting point

>>> result_value("CCCC(CCC)c1ccc(N(Cc2ccc(-c3csc(COc4cncc(C(=O)O)c4)c3)cc2)C(C)C)cc1 [Example 4-3]")
"156 °C"
>>> result_value("CCCCOc1ccc(S(=O)(=O)N(CC)c2ccc(-c3csc(CN(CC(=O)O)Cc4ccccc4)c3)cc2)cc1 [Example 4-103]")
"120.7 to 123.3 °C"
>>> result_value("CCCC(CCC)c1ccc(OCc2ccc(-c3ccc(C(=O)N(CC(=O)O)Cc4nc5ccccc5n4C)s3)cc2)cc1 [Example 4-42]")
"185 to 188 °C"
>>> result_value("CCC(CC)c1ccc(COc2ccc(-c3csc(CN(CC(=O)O)Cc4ccc(C(F)(F)F)cc4)n3)cc2)cc1 [Example 3-16]")
"136 to 138 °C"
>>> result_value("CCCC(CCC)c1ccc(OCc2ccc(-c3csc(CN(C)c4ccc(OCC(=O)O)c(C(=O)O)c4)n3)cc2)cc1 [Example 1-125]")
"122 °C"
>>> result_value("CCCC(CCC)c1ccc(Cn2cc(-c3csc(COc4ccc(C(=O)O)cc4)n3)c3ccccc32)cc1 [Example 1-157]")
"199 to 200 °C"
>>> result_value("CCCC(CCC)c1ccc(N(C)Cc2ccc(-c3csc(CN(C)S(=O)(=O)CCCC(=O)[O-])n3)cc2)cc1.[Na+] [Example 1-16]")
"217 to 220 °C"
>>> result_value("CCCC(CCC)c1ccc(OCc2ccc(-c3ccc(CN(CC(=O)O)Cc4nc5ccccc5o4)s3)cc2)cc1 [Example 4-96]")
"127.4 to 130 °C"
>>> result_value("CCN(Cc1ccc(C2CCCCC2)cc1)c1ccc(-c2ccc(CN(CC(=O)O)Cc3ccccn3)s2)cc1 [Example 4-66]")
"128 to 131 °C"
>>> result_value("CC(C)c1ccc(CN(c2ccc(-c3csc(CN(CC(=O)O)Cc4ccc(C(C)(C)C)cc4)n3)cc2)C(C)C)cc1 [Example 3-46]")
"82 to 87 °C"

### Prompt Item CCCC(CCC)c1ccc(OCc2ccc(-c3ccc(CN(CC(=O)O)Cc4nc5ccccc5n4CC(=O)N(CC)CC)s3)cc2)cc1 [Example 4-101] : provide melting point
### Response 194.8 to 197 °C

### Prompt Could you please provide reported melting point for CCCC(CCC)c1ccc(CN2CCCc3cc(-c4csc(CN(CC(=O)O)Cc5nc(C(C)(C)C)cs5)n4)ccc32)cc1 [Example 3-125] ? Thanks!
### Response 132 to 135 °C

### Prompt Using known records, supply melting point for O=C(O)c1cccc(C2CCN(Cc3nc(-c4ccc(OCc5cc(C(F)(F)F)cc(C(F)(F)F)c5)cc4)cs3)CC2)c1 [Example 1-174]
### Response 222 to 228 °C

### Prompt Specify melting point for CCCC(CCC)c1ccc(OCc2ccc(-c3csc(CN(CC(=O)O)Cc4ncc(C(C)(C)C)o4)c3)cc2)cc1 [Example 4-29] and stop.
### Response 120.5 °C
